Values were extracted from PubChem BioAssay (Tox21).

# test-protocol: Nuclear factor erythroid 2-related factor 2/antioxidant responsive element (Nrf2/ARE) small molecule agonists: qHTS cell viability counter screen in human keratinocytes (AID 1919968); also: nearly all actives have a fitted effect of over 55% in size
# setup-conditions: KeratinoSens HaCaT ARE cells viability, CellTiter-Fluor, 24 h; series mostly up to 92.4 µM
Inconclusive results are not listed. The source made the active and inactive calls. Calls follow the shape of the dose curve; as a rule, active = well fitted cell-killing curve with a large enough effect in the repeat runs; inconclusive = weak or mixed curves, or effect the other way; inactive = flat fitted curve, though single readings scatter.
property-name: outcome

Examples from the recorded data:
| molecule | outcome |
| --- | --- |
| CNC(=O)Oc1ccccc1OC(C)C | inactive |
| Cc1cc(C)cc(C)c1 | inactive |
| CCCCOCCOC(C)=O | inactive |
| CCC(CC)Nc1c([N+](=O)[O-])cc(C)c(C)c1[N+](=O)[O-] | inactive |

Input: # outcome lookup, item "CCOP(=O)(CN(CCO)CCO)OCC"
Output: inactive

Input: # outcome lookup, item "Nc1ccc(Cl)c(Cl)c1"
Output: inactive

Input: # outcome lookup, item "CCC(=O)c1ccccc1"
Output: inactive

====

# system-tested: D(2) dopamine receptor (Homo sapiens)
# test-protocol: Dopamine D2 receptor (DRD2) small molecule antagonists, cell-based qHTS assay (AID 1963595)
# setup-conditions: HEK293-DRD2 cAMP HTRF antagonist mode; series mostly up to 92.4 µM
Records with an inconclusive call do not appear. The source made the active and inactive calls. Calls come from the whole dose curve; as a rule, active = well fitted inhibition curve with a large enough effect in the signal ratio in the repeat runs, with a control signal flat; inconclusive = weak or mixed curves, or effect the other way; inactive = flat fitted curve, though single readings scatter; the % refers to the signal ratio.
property-name: outcome

Examples from the recorded data:
| compound | system-tested | outcome |
| --- | --- | --- |
| c1ccc(P(c2ccccc2)c2ccccc2)cc1 | D(2) dopamine receptor (Homo sapiens) | inactive |
| CCCC[n+]1ccccc1C | D(2) dopamine receptor (Homo sapiens) | inactive |
| CC(C)OC(=O)Nc1ccccc1 | D(2) dopamine receptor (Homo sapiens) | inactive |
| CCC1(c2ccccc2)CCC(=O)NC1=O (stereo not drawn) | D(2) dopamine receptor (Homo sapiens) | inactive |

Input: # outcome lookup, item "CC(c1ccc(O)cc1)c1ccc(O)cc1"
Output: inactive

Input: # outcome lookup, item "CCC[N+]1(C)CCCCC1"
Output: inactive

Input: # outcome lookup, item "CCOP(=S)(OCC)SCSc1cc(Cl)ccc1Cl"
Output: inactive

Input: # outcome lookup, item "C=C(C)[C@@H]1CC=C(C=O)CC1"
Output: inactive

====

# system-tested: 5-hydroxytryptamine receptor 2A (Homo sapiens)
# test-protocol: 5-hydroxytryptamine receptor 2A (HTR2A) small molecule antagonists, cell-based qHTS assay (AID 1963586); also: nearly all actives have a fitted effect of over 45% in size
# setup-conditions: HTR2A-CHO cells, DOI-induced calcium flux, fluorescence; series mostly up to 61.5 µM
Results filed as inconclusive are left out. The source made the active and inactive calls. Calls follow the shape of the full dose curve.
property-name: outcome

Examples from the recorded data:
| molecule | outcome |
| --- | --- |
| ClC(Cl)(Cl)Br | inactive |
| CCCCN(CC)C(=O)SCCC | inactive |
| CC1OC(C)OC(C)O1 (stereo not given) | inactive |
| Cc1coc2c1CCC(C)C2 (stereo not given) | inactive |
| CN(C)c1ccccc1 | inactive |
| CNC(=O)Oc1ccccc1C1OCCO1 | inactive |

Input: Lab note: need outcome with 5-hydroxytryptamine receptor 2A (Homo sapiens) for entry "CSc1nnc(C(C)(C)C)c(=O)n1N" , please look it up.
Output: inactive

Input: Lab note: need outcome with 5-hydroxytryptamine receptor 2A (Homo sapiens) for entry "COC(=O)Nc1cccc(OC(=O)Nc2cccc(C)c2)c1" , please look it up.
Output: inactive

Input: Lab note: need outcome with 5-hydroxytryptamine receptor 2A (Homo sapiens) for entry CC(C)=CC1C(C(=O)OCc2cccc(Oc3ccccc3)c2)C1(C)C (stereo not given) , please look it up.
Output: inactive

Input: Lab note: need outcome with 5-hydroxytryptamine receptor 2A (Homo sapiens) for entry "Cc1[nH]c(=O)n(C(C)(C)C)c(=O)c1Cl" , please look it up.
Output: inactive

====

# test-protocol: cAMP Responsive Elements (CRE) small molecule antagonists, cell-based qHTS assay (AID 1963591)
# setup-conditions: CRE-bla HEK293T, beta-lactamase FRET ratio; series mostly up to 92.4 µM
Records with an inconclusive call do not appear. The source made the active and inactive calls. Calls come from the whole dose curve; as a rule, active = well fitted inhibition curve with a large enough effect in the signal ratio in the repeat runs (not every such curve was filed as active); inconclusive = weak or mixed curves, or effect the other way; inactive = flat fitted curve, though single readings scatter; the % refers to the signal ratio.
property-name: outcome

Examples from the recorded data:
| molecule | outcome |
| --- | --- |
| Nc1cccc2ccccc12 | inactive |
| C=CC(C)=O | inactive |
| Nc1c(Cl)cc([N+](=O)[O-])cc1Cl | inactive |
| O=[N+]([O-])c1cc([As](=O)(O)O)ccc1O | inactive |
| CN(C)C(=O)Nc1ccc(Cl)cc1 | inactive |
| Cc1ccccc1CCl | inactive |
| OCC(Br)CBr (stereo unspecified) | inactive |
| ClCC(Cl)CCl | inactive |

Input: # outcome lookup, item C1CC2OC2CC1C1CO1 (stereo unspecified)
Output: inactive

Input: # outcome lookup, item "c1ccc2c(c1)-c1cccc3cccc-2c13"
Output: inactive

Input: # outcome lookup, item "[CH3][Sn]([CH3])([Cl])[Cl]"
Output: inactive

Input: # outcome lookup, item "N#CC(Br)Br"
Output: inactive

Input: # outcome lookup, item "Brc1ccc(Oc2cc(Br)c(Br)cc2Br)c(Br)c1"
Output: inactive

Input: # outcome lookup, item "CC(C)Nc1nc(Cl)nc(NC(C)C)n1"
Output: inactive

Input: # outcome lookup, item "Nc1ccc([As](=O)(O)O)cc1"
Output: inactive

Input: # outcome lookup, item "N#CCNCC#N"
Output: inactive

====

# test-protocol: p53 small molecule agonists, cell-based qHTS assay: qHTS cell viability counter screen (AID 1963581); also: nearly all actives have a fitted effect of over 45% in size
# setup-conditions: p53RE-bla HCT-116 viability, ATP luminescence, 16 h; series mostly up to 66 µM
# Description: National Center for Advancing Translational Sciences [NCATS] Division of Preclinical Innovation [DPI] U.S. Environmental Protection Agency [EPA] National Institutes of Environmental Health Sciences [NIEHS] National Toxicology Program [NTP] U.S. Food and Drug Administration [FDA] p53, a tumor suppressor protein, is activated following cellular insult, including DNA damage and other cellular stresses. […] The activation of the reporter gene under culture conditions can be detected by fluorescence intensity. […]
Inconclusive results are not listed. Calls of active or inactive are those of the source. The call rests on the fitted dose curve.
In this exercise, the only acceptable responses are active, inactive

Input: Write down the call the test reported for this compound. Item: "CN(C)NC(=O)CCC(=O)O"
Output: inactive

Input: Write down the call the test reported for this compound. Item: "C[C@]12CCC(=O)C=C1CC[C@@H]1[C@@H]2CC[C@@]2(C)[C@H]1CC[C@]2(C)O"
Output: inactive

Input: Write down the call the test reported for this compound. Item: "C[C@]12CC[C@H]3[C@@H](CCC4=CC(=O)CC[C@@H]43)[C@@H]1CC[C@@H]2O"
Output: inactive

Input: Write down the call the test reported for this compound. Item: "Nc1ccc(N)cc1"
Output: inactive

Input: Write down the call the test reported for this compound. Item: "C=CCc1ccccc1O"
Output: inactive

Input: Write down the call the test reported for this compound. Item: "CC(C)c1ccc(CO)cc1"
Output: inactive

Input: Write down the call the test reported for this compound. Item: "CCC(Br)(CC)C(=O)NC(N)=O"
Output: inactive

Input: Write down the call the test reported for this compound. Item: "CCOP(OCC)OCC"
Output: inactive

Input: Write down the call the test reported for this compound. Item: "CCCCCCCCn1cc[n+](C)c1"
Output: inactive

Input: Write down the call the test reported for this compound. Item: "CN1CCC(N(Cc2ccccc2)c2ccccc2)CC1"
Output: inactive

Input: Write down the call the test reported for this compound. Item: "CCN(CC)CCO"
Output: inactive

Input: Write down the call the test reported for this compound. Item: "O=[N+]([O-])c1ccc(Cl)c(Cl)c1"
Output: inactive

Input: Write down the call the test reported for this compound. Item: "CNC(C)(C)Cc1ccccc1"
Output: inactive

Input: Write down the call the test reported for this compound. Item: "Cc1ccc(N)c(C)c1"
Output: inactive

Input: Write down the call the test reported for this compound. Item: "CN(C)c1ccccc1"
Output: inactive

Input: Write down the call the test reported for this compound. Item: "CN(C)P(=O)(N(C)C)N(C)C"
Output: inactive

Input: Write down the call the test reported for this compound. Item: "ClC(Cl)(Cl)C(Cl)(Cl)Cl"
Output: inactive

Input: Write down the call the test reported for this compound. Item: CC1OC(C)OC(C)O1 (centres undefined)
Output: inactive

Input: Write down the call the test reported for this compound. Item: "ClC(Cl)c1ccccc1"
Output: inactive

Input: Write down the call the test reported for this compound. Item: "CC1=C2[C@H]3OC(=O)[C@@H](C)[C@@H]3CC[C@@]2(C)C=CC1=O"
Output: inactive

Input: Write down the call the test reported for this compound. Item: "Oc1cc(Cl)ccc1Cl"
Output: inactive

Input: Write down the call the test reported for this compound. Item: "CC(C)OC(=O)Cc1ccccc1"
Output: inactive

Input: Write down the call the test reported for this compound. Item: "CN(C)C(=O)Nc1ccc(Cl)cc1"
Output: inactive

Input: Write down the call the test reported for this compound. Item: "COP(=S)(OC)SCn1nnc2ccccc2c1=O"
Output: inactive

Input: Write down the call the test reported for this compound. Item: "CC(C)(C)CC(C)(C)c1ccc(O)cc1"
Output: active

Input: Write down the call the test reported for this compound. Item: "CCOP(=O)(CN(CCO)CCO)OCC"
Output: inactive

Input: Write down the call the test reported for this compound. Item: CC(C)(c1ccc(OCC2CO2)cc1)c1ccc(OCC2CO2)cc1 (centres undefined)
Output: inactive

Input: Write down the call the test reported for this compound. Item: "CCCCCCCCOC(=O)c1ccc(C(=O)OCCCCCCCC)c(C(=O)OCCCCCCCC)c1"
Output: inactive

Input: Write down the call the test reported for this compound. Item: "Cc1ccc(N=C=O)cc1N=C=O"
Output: inactive

Input: Write down the call the test reported for this compound. Item: "Cl/C=C/Cl"
Output: inactive

Input: Write down the call the test reported for this compound. Item: "CCCCCC[n+]1ccccc1"
Output: inactive

Input: Write down the call the test reported for this compound. Item: CCCCC(C#N)(Cn1cncn1)c1ccc(Cl)cc1 (centres undefined)
Output: inactive

Input: Write down the call the test reported for this compound. Item: "Nc1ccccc1Cl"
Output: inactive

Input: Write down the call the test reported for this compound. Item: "Cc1cc(C)cc(C)c1"
Output: inactive

Input: Write down the call the test reported for this compound. Item: "CCOP(=S)(OCC)OP(=S)(OCC)OCC"
Output: inactive

Input: Write down the call the test reported for this compound. Item: "CCCCN(CCCCO)N=O"
Output: inactive

Input: Write down the call the test reported for this compound. Item: "FC(Cl)(Cl)Cl"
Output: inactive

Input: Write down the call the test reported for this compound. Item: "COP(=O)(OC)OC"
Output: inactive

Input: Write down the call the test reported for this compound. Item: "COc1cc(-c2ccc(N)c(OC)c2)ccc1N"
Output: inactive

Input: Write down the call the test reported for this compound. Item: "Cc1ccc(C(=O)Cl)cc1"
Output: inactive

Input: Write down the call the test reported for this compound. Item: "C=CC(=O)OC(C)(C)C"
Output: inactive

Input: Write down the call the test reported for this compound. Item: "CC(C)(C)C(=O)Cl"
Output: inactive

Input: Write down the call the test reported for this compound. Item: "COP(=O)(OC)OC=C(Cl)Cl"
Output: inactive

Input: Write down the call the test reported for this compound. Item: COc1ccc(C(CN(C)C)C2(O)CCCCC2)cc1 (centres undefined)
Output: inactive

Input: Write down the call the test reported for this compound. Item: "[CH3][Sn]([CH3])([Cl])[Cl]"
Output: inactive

Input: Write down the call the test reported for this compound. Item: "CN(CCO)CCO"
Output: inactive

Input: Write down the call the test reported for this compound. Item: "CNC(=O)Oc1cccc2ccccc12"
Output: inactive

Input: Write down the call the test reported for this compound. Item: "CCC(=O)OC1(c2ccccc2)CCN(C)CC1"
Output: inactive

Input: Write down the call the test reported for this compound. Item: "CCCCCCCCOC(=O)c1ccccc1C(=O)OCCCCCCCC"
Output: inactive

Input: Write down the call the test reported for this compound. Item: "Cc1ccccc1[N+](=O)[O-]"
Output: inactive

Input: Write down the call the test reported for this compound. Item: "CN(C)CCC#N"
Output: inactive

Input: Write down the call the test reported for this compound. Item: CCCC1CCCCN1 (centres undefined)
Output: inactive

Input: Write down the call the test reported for this compound. Item: "Cc1ncc2n1-c1ccc(Cl)cc1C(c1ccccc1F)=NC2"
Output: inactive

Input: Write down the call the test reported for this compound. Item: "Cc1cccc([N+](=O)[O-])c1"
Output: inactive

Input: Write down the call the test reported for this compound. Item: "O=C/C=C/c1ccco1"
Output: inactive

Input: Write down the call the test reported for this compound. Item: "CC(=O)C=C(C)C"
Output: inactive

Input: Write down the call the test reported for this compound. Item: "C=CC(N)=O"
Output: inactive

Input: Write down the call the test reported for this compound. Item: "CC(Cl)(Cl)C(=O)O"
Output: inactive

Input: Write down the call the test reported for this compound. Item: "Cc1ccc(CCl)cc1"
Output: inactive

Input: Write down the call the test reported for this compound. Item: "Clc1ccccc1-c1nnc(-c2ccccc2Cl)nn1"
Output: inactive

Input: Write down the call the test reported for this compound. Item: "CCN(CCO)CCO"
Output: inactive

Input: Write down the call the test reported for this compound. Item: "CCCC[n+]1ccccc1C"
Output: inactive

Input: Write down the call the test reported for this compound. Item: "c1ccc(NNc2ccccc2)cc1"
Output: inactive

Input: Write down the call the test reported for this compound. Item: "Cc1cc(Cl)ccc1O"
Output: inactive
